Assay: Cytotoxicity against human PC3 cells after 48 hrs by MTT assay
Format: functional, cell-based, PC-3
Settings: Homo sapiens, PC-3, 48 h; read-out: IC50
pIC50: −log10 of the molar value.
test readout: pIC50

>>> print(df.to_string())
                                   compound  measurement
0  CC(C)(C)OC(=O)N1CCN(CC(=O)N2N=C(c3cc4ccccc4oc3=O)CC2c2ccccc2)CC1 (stereo not given)         4.44
1  CC1=NN(C(=O)CN2CC(C)CC(C)C2)C(c2ccccc2O)C1 (stereo not given)         4.44
2  CC1=NN(C(=O)c2ccc(C)cc2)C(c2cc(Br)ccc2O)C1 (stereo not given)         4.39
3  CC1CCCN(CC(=O)N2N=C(c3cc4ccccc4oc3=O)CC2c2ccccc2)C1 (stereo not given)         4.55
4  CC1=NN(C(=O)CN2CCSCC2)C(c2ccccc2O)C1 (stereo not given)         4.53
5  COc1ccccc1C1CC(C)=NN1C(=O)C[N+]1(C)CCCC1 (stereo not given)         4.95
6  COc1ccccc1C1CC(C)=NN1C(=O)CN(C(C)C)C(C)C (stereo not given)         5.28
7  CC1=NN(S(=O)(=O)c2ccc([N+](=O)[O-])cc2)C(c2cc(Br)cc(Br)c2O)C1 (stereo not given)         4.30
8  CCC(=O)N1N=C(C)CC1c1cc(Br)cc(Br)c1O (stereo not given)         4.54
9  CC(=O)Oc1ccccc1C1CC(C)=NN1C(=O)CN(C(C)C)C(C)C (stereo not given)         4.61

###

Assay: Cytotoxicity against human PC3 cells after 48 hrs by MTT assay
Type: functional, cell-based, PC-3
Details: Homo sapiens, PC-3, 48 h; read-out: IC50
pIC50: −log10 of the molar value.
Catalogue of pIC50 values
test readout: pIC50

>>> print(df.to_string())
                                   compound  measurement
0  O=C(c1ccccc1Cl)N1N=C(c2cc3ccccc3oc2=O)CC1c1ccccc1 (stereo not given)         5.20
1  CC1=NN(C(=O)CCc2ccccc2)C(c2cc(Br)ccc2O)C1 (stereo not given)         4.79
2  CCCCCCN(CCCCCC)CC(=O)N1N=C(c2cc3ccccc3oc2=O)CC1c1ccccc1C(F)(F)F (stereo not given)         5.22
3  CC1CCCCN1CC(=O)N1N=C(c2cc3ccccc3oc2=O)CC1c1ccccc1 (stereo not given)         4.44
4  CC1=NN(C(=O)c2ccc(C)cc2)C(c2cc(Br)cc(Br)c2O)C1 (stereo not given)         4.38
5  CC1=NN(C(=O)CN(CC(C)C)CC(C)C)C(c2ccccc2O)C1 (stereo not given)         4.49
6  CCN(CC)CC(=O)N1N=C(C)CC1c1ccccc1OC(C)=O (stereo not given)         4.29
7  CC(=O)Oc1ccccc1C1CC(C)=NN1C(=O)CN1CCCCC1 (stereo not given)         5.39
8  CC1=NN(C(=O)/C=C/c2ccccc2)C(c2ccccc2O)C1 (stereo not given)         4.38
9  CC1=NN(C(=O)c2ccc([N+](=O)[O-])cc2)C(c2ccccc2O)C1 (stereo not given)         4.44

###

Catalogue of pIC50 values
Test: Cytotoxicity against human PC3 cells after 48 hrs by MTT assay
Format: functional, cell-based, PC-3
Details: Homo sapiens, PC-3, 48 h; read-out: IC50
pIC50: −log10 of the molar value.
test readout: pIC50

In [3]: df
Out[3]:
                                    compound  measurement
 0  CC1=NN(S(=O)(=O)c2ccc([N+](=O)[O-])cc2)C(c2cc(Cl)ccc2O)C1 (configuration not stated)         4.35
 1  CC1=NN(C(=O)CN2CCCC(C)C2)C(c2ccccc2O)C1 (configuration not stated)         4.45
 2  CC1=NN(C(=O)CN2CCC(c3ccccc3)CC2)C(c2ccccc2O)C1 (configuration not stated)         4.69
 3  CC1=NN(C(=O)CCl)C(c2cc(Br)cc(Br)c2O)C1 (configuration not stated)         5.24
 4  CC(=O)Oc1ccccc1C1CC(C)=NN1C(=O)CN1CCC(O)CC1 (configuration not stated)         4.59
 5  COc1cccc2c1C(=O)c1c(O)c3c(c(O)c1C2=O)C[C@@](O)(C(=O)CO)C[C@@H]3O[C@H]1C[C@H](N)[C@H](O)[C@H](C)O1 [DOXORUBICIN]         6.06
 6  CC(C)NCC(=O)N1N=C(c2cc3ccccc3oc2=O)CC1c1ccccc1 (configuration not stated)         5.73
 7  CC1=NN(C(=O)CCc2ccccc2)C(c2cc(Br)cc(Br)c2O)C1 (configuration not stated)         4.95
 8  CC(=O)Oc1ccccc1C1CC(C)=NN1C(=O)CN1CCC(C(C)=O)CC1 (configuration not stated)         5.17
 9  CC1=NN(C(=O)CN2CCC(Cl)CC2)C(c2ccccc2O)C1 (configuration not stated)         4.46
10  O=C(CCl)N1N=C(c2cc3ccccc3oc2=O)CC1c1ccccc1 (configuration not stated)         5.53
11  CCCNCC(=O)N1N=C(c2cc3ccccc3oc2=O)CC1c1ccccc1 (configuration not stated)         5.14

###

Catalogue of log10 IC50 values
Assay: Cytotoxicity against human PC3 cells after 48 hrs by MTT assay
Type: functional, cell-based, PC-3
Conditions: Homo sapiens, PC-3, 48 h; read-out: IC50
test readout: log10 IC50 (log10 of the value in µM)

>>> df
                                    compound  test_readout  measurement
 0  CC(=O)Oc1ccccc1C1CC(C)=NN1C(=O)CCl (stereo not drawn)    log10 IC50         0.55
 1  CC1=NN(C(=O)CN(C(C)C)C(C)C)C(c2ccccc2O)C1 (stereo not drawn)    log10 IC50         1.51
 2  CC(=O)Oc1ccccc1C1CC(C)=NN1C(=O)CN1CCCCC1C (stereo not drawn)    log10 IC50         1.05
 3  CCC(=O)N1N=C(C)CC1c1cc(Br)ccc1O (stereo not drawn)    log10 IC50         1.58
 4  Cc1ccc(C(=O)N2N=C(c3cc4ccccc4oc3=O)CC2c2ccccc2)cc1 (stereo not drawn)    log10 IC50         1.12
 5  CCCCN(CCCC)CC(=O)N1N=C(c2cc3ccccc3oc2=O)CC1c1ccccc1 (stereo not drawn)    log10 IC50         0.69
 6  CCN(CC)CC(=O)N1N=C(C)CC1c1ccccc1O (stereo not drawn)    log10 IC50         1.41
 7  CNCC(=O)N1N=C(c2cc3ccccc3oc2=O)CC1c1ccccc1 (stereo not drawn)    log10 IC50         0.36
 8  CC1=NN(C(=O)CCc2ccccc2)C(c2ccccc2O)C1 (stereo not drawn)    log10 IC50         0.97
 9  O=C(CN1CCCC1)N1N=C(c2cc3ccccc3oc2=O)CC1c1ccccc1 (stereo not drawn)    log10 IC50         1.70
10  CC1=NN(S(=O)(=O)c2ccc(C)cc2)C(c2cc(Br)ccc2O)C1 (stereo not drawn)    log10 IC50         1.52
11  CC1=NN(C(=O)c2ccccc2Cl)C(c2ccccc2O)C1 (stereo not drawn)    log10 IC50         1.63
12  O=C(c1ccccc1)N1N=C(c2cc3ccccc3oc2=O)CC1c1ccccc1 (stereo not drawn)    log10 IC50         0.77
13  Cc1ccc(S(=O)(=O)N2N=C(c3cc4ccccc4oc3=O)CC2c2ccccc2)cc1 (stereo not drawn)    log10 IC50         1.69
14  CCN(CC)CC(=O)N1N=C(c2cc3ccccc3oc2=O)CC1c1ccccc1 (stereo not drawn)    log10 IC50         0.81
15  CCCN(CCC)CC(=O)N1N=C(C)CC1c1cc(Br)ccc1O (stereo not drawn)    log10 IC50         1.28
16  CC(C)(C)NCC(=O)N1N=C(c2cc3ccccc3oc2=O)CC1c1ccccc1 (stereo not drawn)    log10 IC50         1.21
17  CC1=NN(C(=O)CN2CCCC2)C(c2ccccc2O)C1 (stereo not drawn)    log10 IC50         0.82
18  O=C(CN1CCSCC1)N1N=C(c2cc3ccccc3oc2=O)CC1c1ccccc1 (stereo not drawn)    log10 IC50         0.60
19  C=CCN(CC=C)CC(=O)N1N=C(C)CC1c1cc(Br)ccc1O (stereo not drawn)    log10 IC50         0.49
20  CCC(=O)N1N=C(c2cc3ccccc3oc2=O)CC1c1ccccc1 (stereo not drawn)    log10 IC50         0.64
21  CC1=NN(C(=O)CN2CCCCC2)C(c2ccccc2O)C1 (stereo not drawn)    log10 IC50         0.77
22  CC(=O)Oc1ccccc1C1CC(C)=NN1C(=O)CN1CCCC1 (stereo not drawn)    log10 IC50         0.79
